# measured_target: bovine trypsin (bovine, UniProt P00760 24-246)
# Sequence (P00760 24-246): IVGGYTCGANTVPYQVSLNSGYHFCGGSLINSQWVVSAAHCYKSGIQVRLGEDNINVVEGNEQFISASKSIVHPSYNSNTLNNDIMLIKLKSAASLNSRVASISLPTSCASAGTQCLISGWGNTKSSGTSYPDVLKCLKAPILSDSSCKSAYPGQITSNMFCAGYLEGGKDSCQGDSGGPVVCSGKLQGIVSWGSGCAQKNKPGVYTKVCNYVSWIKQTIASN
# assay_notes: trypsin inhibition, BApNA substrate
Bridge positions count the residues as written; N and C are the ends. Ends that are not written are not given here.
measured_property: Ki (nM)
Provide the reading as a plain figure in nM.

Illustrative cases are given below, each with its answer.
binder: CGRPTKSIPPICF (disulfide 1-12 (inferred)) [BT59]
unit_abbreviation: nM
Ki: 5590

binder: CGRNTKSIPPICF (disulfide 1-12 (inferred)) [BT55]
unit_abbreviation: nM
Ki: 60

Consider the record given below.
Can you share its Ki? I mean this binder: CGRATKSIPPIAFGC (disulfide 1-15 (inferred)) [BT32]
330

Entry source: patent US20230416329A1
